The reported numbers originate from the supplement of paper PMC10567573.

B1: POMT2 (parent)
chain: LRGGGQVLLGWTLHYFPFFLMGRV

variants of: B1; assay: protein stability index of a GFP-peptide fusion (GPS, HEK-293T) (PSI 1-6); higher = more stable; details: c terminus: a fixed tail appended;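 further: lentivirally expressed fusions sorted by FACS into six bins by GFP to DsRed ratio, PSI derived from sequencing read proportions per bin multiplied by bin number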
This section presents variants with their documented protein stability index values.
property label: protein stability index

[[record]]
seq = "LRGGGQRLLGWTLHYFPFFLMGRV [V7R]"
value_observed = 2.7

[[record]]
seq = "LRGGGQVLAGWTLHYFPFFLMGRV [L9A]"
value_observed = 3.06

[[record]]
seq = "LRGGGQVLLGWTLHYFPFFLMGYV [R23Y]"
value_observed = 1.9

[[record]]
seq = "LYGGGQVLLGWTLHYFPFFLMGRV [R2Y]"
value_observed = 2.82

[[record]]
seq = "LRGGGQVLLGWTPHYFPFFLMGRV [L13P]"
value_observed = 2.64

[[record]]
seq = "LRGGGQVLLNWTLHYFPFFLMGRV [G10N]"
value_observed = 1.97

[[record]]
seq = "LWGGGQVLLGWTLHYFPFFLMGRV [R2W]"
value_observed = 3.48

[[record]]
seq = "LRGGGQVLLGWTLHYFPFFLMGEV [R23E]"
value_observed = 3.15

[[record]]
seq = "LRGVGQVLLGWTLHYFPFFLMGRV [G4V]"
value_observed = 2.52

[[record]]
seq = "LRGGGQVLLGWTLHEFPFFLMGRV [Y15E]"
value_observed = 2.31

[[record]]
seq = "LRGGGQVLLGWVLHYFPFFLMGRV [T12V]"
value_observed = 3.16

